measured on: human TLR7 (Homo sapiens)
Construct: host or cells: HEK293 (HEK-Blue hTLR7)
Sequence (Q9NYK1 27-1049): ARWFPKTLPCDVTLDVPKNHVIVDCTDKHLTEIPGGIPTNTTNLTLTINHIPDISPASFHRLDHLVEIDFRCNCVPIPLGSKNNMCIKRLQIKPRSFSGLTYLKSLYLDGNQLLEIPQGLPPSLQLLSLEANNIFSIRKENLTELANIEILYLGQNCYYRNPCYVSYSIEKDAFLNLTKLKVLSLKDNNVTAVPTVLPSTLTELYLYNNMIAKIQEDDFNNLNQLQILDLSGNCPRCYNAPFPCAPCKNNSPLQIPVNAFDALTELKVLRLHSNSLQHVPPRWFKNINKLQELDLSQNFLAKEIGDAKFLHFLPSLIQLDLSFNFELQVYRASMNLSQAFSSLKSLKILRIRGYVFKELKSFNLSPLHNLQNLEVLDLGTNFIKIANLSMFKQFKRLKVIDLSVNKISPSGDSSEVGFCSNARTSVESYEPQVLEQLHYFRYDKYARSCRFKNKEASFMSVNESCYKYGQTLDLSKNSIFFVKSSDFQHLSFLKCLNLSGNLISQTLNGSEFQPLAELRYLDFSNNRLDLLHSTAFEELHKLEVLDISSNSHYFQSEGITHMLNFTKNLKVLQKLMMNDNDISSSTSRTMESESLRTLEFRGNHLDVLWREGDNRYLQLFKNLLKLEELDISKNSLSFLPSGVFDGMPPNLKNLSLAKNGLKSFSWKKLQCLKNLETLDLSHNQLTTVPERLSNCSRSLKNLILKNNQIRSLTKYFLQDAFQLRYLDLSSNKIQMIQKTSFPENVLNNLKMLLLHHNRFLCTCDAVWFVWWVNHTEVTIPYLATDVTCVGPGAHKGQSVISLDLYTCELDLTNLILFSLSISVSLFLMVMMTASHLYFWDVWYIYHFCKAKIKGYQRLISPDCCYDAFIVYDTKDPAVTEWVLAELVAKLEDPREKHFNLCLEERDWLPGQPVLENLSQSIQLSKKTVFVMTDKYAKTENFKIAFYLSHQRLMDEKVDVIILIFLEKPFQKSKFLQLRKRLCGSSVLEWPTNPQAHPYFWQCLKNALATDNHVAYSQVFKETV
assay comment: HEK-Blue hTLR7 reporter cell assay (SEAP, NF-kB/AP-1) for stimulation of human TLR7
Type: cell-based
condition summary: HEK-Blue hTLR7 cells, 24 h incubation, SEAP readout; read-out: TLR7_EC50
pEC50: −log10 of the molar value. Structures can show the parent of a compound that is named as a salt.
readout type: pEC50

Some solved entries appear below for comparison.
>>> measured_result("CCCCc1nc2c(N)nnc(OC(C)C)c2n1Cc1ccc(CNC2CS(=O)(=O)C2)cc1 [Compound 37]")
6.50
>>> measured_result("CCCCc1nc2c(N)nnc(OC(C)C)c2n1CCCCCCN(C(C)=O)C1CS(=O)(=O)C1 [Compound 155, hydrochloride salt]")
6.22

P. CCCCc1nc2c(N)nnc(OC(C)C)c2n1CCCCCCN(C(C)=O)C1CCOCC1 [Compound 148]
Q. CCCCc1nc2c(N)nnc(OC(C)C)c2n1Cc1cccc(CNC)c1 [Compound 124]
*Q* From the items above, decide which of P and Q has the lower pEC50 reading. Please reply using the label of the selected record.
*A* Q
(Q: 6.75, P: 7.46)
